Test system: SEM cells
Experiment: cell viability relative to DMSO control; higher = less cytotoxic
Conditions: RPMI 5 mM glucose + 10% FBS; 48 h; 5.12 µM
Property label: cell viability (%)
Give bare numbers, in %.

Query: State the recorded cell viability for this entry: `CC[C@]12CC[C@H]3[C@@H](CCC/4=C/C(=O)CC[C@H]34)[C@@H]1\C=C/[C@@]2(O)C#C`
Reply: 116

Query: State the recorded cell viability for this entry: O=C(O)C1(Cc2cccc(Nc3nccs3)n2)CCC(Oc2cccc(Cl)c2F)CC1 (configuration not stated)
Reply: 43.1

Query: State the recorded cell viability for this entry: CCc1ccc(CCOc2ccc(CC3SC(=O)NC3=O)cc2)nc1 (configuration not stated)
Reply: 87

Would you be so kind as to report cell viability for each listed record?
1. CC(C)C1NC(=O)C(NC(=O)C2=C3\N=C\4/C(=C(C)\C(=O)\C(=C4C(=O)NC5C(C)OC(=O)C(C(C)C)N(C)C(=O)CN(C)C(=O)C6CCCN6C(=O)C(NC5=O)C(C)C)N)OC3=C(C)C=C2)C(C)OC(=O)C(C(C)C)N(C)C(=O)CN(C)C(=O)C7CCCN7C1=O (configuration not stated)
2. C[C@](O)(CS(=O)(=O)c1ccc(F)cc1)C(=O)Nc1ccc(C#N)c(C(F)(F)F)c1
3. C[C@H]1C[C@@H]2[C@H](CC[C@@]3(C)[C@H]2CC[C@]3(OC(C)=O)C(C)=O)[C@@]\4(C)CCC(=O)\C=C14
4. Cc1coc2c1C(=O)C(=O)c1c-2ccc2c(C)cccc12
5. ClC1=CC=C(C=C1)C(C#N)C2=C(Cl)C=C(C=C2Cl)N3\N=C/C(=O)NC3=O (configuration not stated)
6. O=C(NCC1CCCCN1)c1cc(OCC(F)(F)F)ccc1OCC(F)(F)F (configuration not stated)
7. CC[C@H](/C=C/[C@@H](C)[C@H]1CC[C@H]2[C@@H]3CC=C4C[C@@H](O)CC[C@]4(C)[C@H]3CC[C@]12C)C(C)C
8. c1ccc2[nH]c(-c3cscn3)nc2c1

Reply:
[2.28, 93, 91.6, 72.8, 96.3, 120, 105, 103]

Would you be so kind as to report cell viability for each listed record?
1. CN(C)C(=N)NC(=N)N
2. CC(C)c1ccc2c(c1)c(SC(C)(C)C)c(CC(C)(C)C(=O)[O-])n2Cc1ccc(Cl)cc1
3. OC[C@@H](O)[C@@H](O)[C@H](O)[C@@H](O)CO
4. CC(C)OC(=O)C(C(=O)OC(C)C)=C1S\C=C/S1

Reply:
[62.4, 93.5, 112, 116]

Would you be so kind as to report cell viability for each listed record?
1. O=C(C=CC#Cc1cccc(N[S+](=O)([O-])c2ccccc2)c1)NO
2. CC1(C)O[C@@H]2C[C@H]3[C@@H]4C[C@H](F)C5=CC(=O)C=C[C@]5(C)[C@@]4(F)[C@@H](O)C[C@]3(C)[C@]2(C(=O)CO)O1

Reply:
[10.9, 51.1]

###

Tested on: P12-Ichikawa
Experiment: cell viability relative to DMSO control; higher = less cytotoxic
Conditions: RPMI 5 mM glucose + 10% dialyzed FBS; 48 h; 0.00234 µM
Can you tell me cell viability for the items I'm about to list?
Answers are plain numbers, in %.

Query: State the recorded cell viability for this entry: `CNC(=O)c1ccc(N2C(=S)N(c3cnc(C#N)c(C(F)(F)F)c3)C(=O)C23CCC3)cc1F`
Reply: 111

Query: State the recorded cell viability for this entry: `COc1ccc([C@@H]2CC(=O)c3c(O)cc(O[C@@H]4O[C@H](CO[C@@H]5O[C@@H](C)[C@H](O)[C@@H](O)[C@H]5O)[C@@H](O)[C@H](O)[C@H]4O)cc3O2)cc1O`
Reply: 117

Would you be so kind as to report cell viability for each listed record?
1. COc1ccc(-c2ccc3ncc4c(c3c2)n(-c2ccc(N3CCNCC3)c(C(F)(F)F)c2)c(=O)n4C)cn1
2. FC1=CC=C(C=C1)N2/C=C\C=C(C(=O)NC3=CC=C(OC4=C5C=C[NH]C5=NC=C4)C(=C3)F)/C2=O
3. CCc1ccc(CCOc2ccc(CC3SC(=O)NC3=O)cc2)nc1 (stereo not given)

Reply:
[91.5, 107, 118]

###

Test system: SEM cells
Assay: cell viability relative to DMSO control; higher = less cytotoxic
Conditions: HPLM + 10% dialyzed FBS; 48 h; 0.000781 µM
Can you tell me cell viability for the items I'm about to list?
Answers are plain numbers, in %.

Would you be so kind as to report cell viability for each listed record?
1. COc1cc(F)c(F)c(Nc2ccc(I)cc2F)c1N[S+](=O)([O-])C1(C[C@H](O)CO)CC1
2. C[C@]12COC(=O)C[C@@H]1CC[C@@H]1[C@@H]2CC[C@@]2(C)[C@H]1CC[C@]2(C)O
3. CC[C@H](NC1=C2N=C[NH]C2=NC=N1)C/3=N/C4=C(C(=CC=C4)F)C(=O)N3C5=CC=CC=C5
4. c1ccc2[nH]c(-c3cscn3)nc2c1
5. C[C@]12CC[C@@H]3c4ccc(O)cc4CC[C@H]3[C@@H]1[C@@H](O)[C@@H](O)[C@@H]2O

Reply:
1. 102
2. 96.4
3. 94.9
4. 93.6
5. 104

###

Tested on: NOMO1
Assay: cell viability relative to DMSO control; higher = less cytotoxic
Conditions: RPMI 5 mM glucose + 10% dialyzed FBS; 48 h; 0.0632 µM
Property label: cell viability (%)
Give bare numbers, in %.

Some molecules with known cell viability results, for comparison:
Query: State the recorded cell viability for this entry: `Cn1cnc2c(F)c(Nc3ccc(Br)cc3F)c(C(=O)NOCCO)cc21`
Reply: 75.3

Query: State the recorded cell viability for this entry: `CC[C@H](NC1=C2N=C[NH]C2=NC=N1)C/3=N/C4=C(C(=CC=C4)F)C(=O)N3C5=CC=CC=C5`
Reply: 133

Query: State the recorded cell viability for this entry: `CC1(C)O[C@@H]2C[C@H]3[C@@H]4C[C@H](F)C5=CC(=O)C=C[C@]5(C)[C@@]4(F)[C@@H](O)C[C@]3(C)[C@]2(C(=O)CO)O1`
Reply: 112

Further cases:
Query: State the recorded cell viability for this entry: `O=c1[nH]c(=O)n([C@H]2C[C@H](O)[C@@H](CO)O2)cc1/C=C/Br`
Reply: 119

###

System: NOMO1
Test: cell viability relative to DMSO control; higher = less cytotoxic
Settings: HPLM + 10% dialyzed FBS; 48 h; 0.19 µM
Property label: cell viability (%)
Answers are plain numbers, in %.

Some compounds with known cell viability results, for comparison:
Query: State the recorded cell viability for this entry: `COc1ccc(-c2ccc3ncc4c(c3c2)n(-c2ccc(N3CCNCC3)c(C(F)(F)F)c2)c(=O)n4C)cn1`
Reply: 45.9

Query: State the recorded cell viability for this entry: CCC[S+]([O-])c1ccc2[nH]c(NC(=O)OC)nc2c1 (centres undefined)
Reply: 109

Query: State the recorded cell viability for this entry: `CC(C)c1nc(CN(C)C(=O)N[C@H](C(=O)N[C@@H](Cc2ccccc2)C[C@H](O)[C@H](Cc2ccccc2)NC(=O)OCc2cncs2)C(C)C)cs1`
Reply: 88.9

Further cases:
Query: State the recorded cell viability for this entry: `S=C(NCc1ccc2c(c1)OCO2)N1CCN(c2ncnc3c2oc2ccccc23)CC1`
Reply: 98.2

###

Test system: P12-Ichikawa
Test: cell viability relative to DMSO control; higher = less cytotoxic
Conditions: HPLM + 10% dialyzed FBS; 48 h; 46.1 µM
Threshold 70%. cell viability below it: criterion met. cell viability at it or above: criterion not met.

Query: Is cell viability strictly under 70% for the entry `O=C1NC(=O)/C(=C/c2ccc3nccc(-c4ccncc4)c3c2)S1` ?
Reply: criterion met

Further cases:
Query: Is cell viability strictly under 70% for the entry `COc1ccc([S+](=O)([O-])N(C(C)=O)c2ccccc2/C=C/c2cc[n+]([O-])cc2)cc1` ?
Reply: criterion met

Query: Is cell viability strictly under 70% for the entry CNCC(O)c1ccc(O)cc1 (stereo not drawn) ?
Reply: criterion not met

Query: Is cell viability strictly under 70% for the entry `NNCCc1ccccc1` ?
Reply: criterion not met

Query: Is cell viability strictly under 70% for the entry `CN[C@H]1CCC2=CC(=C(OC)C(=C2C/3=C/C=C(OC)\C(=O)/C=C13)OC)OC` ?
Reply: criterion met

Query: Is cell viability strictly under 70% for the entry `Cc1ccccc1C(=O)c1ccc(Nc2ccc(Br)cc2N)cc1Cl` ?
Reply: criterion met

Query: Is cell viability strictly under 70% for the entry `O=C(O)Cn1nnc(-c2cc(N3CCC(Oc4cc(F)ccc4Br)CC3)no2)n1` ?
Reply: criterion met

Query: Is cell viability strictly under 70% for the entry `CCOC(=O)c1ccc(OC(=O)CCCCCNC(=N)N)cc1` ?
Reply: criterion met

Query: Is cell viability strictly under 70% for the entry `Cc1c(C)n(Cc2ccc(-c3ccccc3C(=O)O)cc2)c2ccc(C(=O)N[C@@H](C)c3ccc([N+](=O)[O-])cc3)cc12` ?
Reply: criterion met

Query: Is cell viability strictly under 70% for the entry `CC(C)CNc1ccnc(NCc2csc(-c3ccccc3)n2)n1` ?
Reply: criterion met

Query: Is cell viability strictly under 70% for the entry Cc1nn(Cc2ccccc2Cl)c(C)c1CN(C)CC(O)COc1ccc(Cl)cc1 (stereo not drawn) ?
Reply: criterion met

Query: Is cell viability strictly under 70% for the entry O=C(O)CCC1CCC(c2cc(F)ccc2F)([S+](=O)([O-])c2ccc(Cl)cc2)CC1 (stereo not drawn) ?
Reply: criterion met

Query: Is cell viability strictly under 70% for the entry `CC(C)(C)NC(=O)Nc1cccc(Nc2ncc(F)c(NC(C)(C)CO)n2)c1` ?
Reply: criterion met

Query: Is cell viability strictly under 70% for the entry `C[C@H](NC(=O)c1sccc1OCc1ccc(Cl)cc1)c1ccccc1` ?
Reply: criterion not met

Query: Is cell viability strictly under 70% for the entry `CC(C)N[C@@H]1CCn2c(=O)[nH]c3cccc(c32)[C@H]1O` ?
Reply: criterion not met

Query: Is cell viability strictly under 70% for the entry `CC[C@H](NC1=C2N=C[NH]C2=NC=N1)C/3=N/C4=C(C(=CC=C4)F)C(=O)N3C5=CC=CC=C5` ?
Reply: criterion met
